Hey, just so you know, these numbers are from ChEMBL document CHEMBL1137288.

assay: Selectivity index, IC50 for L6 cells/IC50 for Plasmodium falciparum K1; assay type: functional

# molecule, Ratio IC50
data = [
    ("CN(C)C12CC(O)C(C(c3ccccc3)C1)C(c1ccccc1)C2 (centres undefined)", 8.52),
    ("O/N=C1\\CC2(N3CCCC3)CC(c3ccc(Cl)cc3)C1C(c1ccc(Cl)cc1)C2 (centres undefined)", 24.82),
    ("O/N=C1/CC2(N3CCCC3)CC(c3ccc(Cl)cc3)C1C(c1ccc(Cl)cc1)C2 (centres undefined)", 27.26),
    ("O=C1CC2(N3CCCC3)CC(c3ccccc3)C(N1)C(c1ccccc1)C2 (centres undefined)", 28.43),
    ("CN(C)C12CC(=O)NC(C(c3ccccc3)C1)C(c1ccccc1)C2 (centres undefined)", 192.2),
    ("COc1ccc(C2CC3(N4CCCC4)CC(=O)C2C(c2ccc(OC)cc2)C3)cc1 (centres undefined)", 12.44),
    ("CN(C)C12CC(=O)C(C(c3ccccc3)C1)C(c1ccccc1)C2 (centres undefined)", 2.32),
    ("O/N=C1\\CC2(N3CCCCC3)CC(c3ccccc3)C1C(c1ccccc1)C2 (centres undefined)", 161.1),
    ("COc1ccc(C2CC3(N4CCCC4)CC(O)C2C(c2ccc(OC)cc2)C3)cc1 (centres undefined)", 6.58),
]

---

Entries and their measured IC50 follow.
tested on: Trypanosoma brucei rhodesiense; assay: Antiprotozoal activity against Trypanosoma brucei rhodesiense STIB900; type: functional, organism-based
reported-endpoint: IC50

# molecule, observed-value
records = [
    ("CN(C)C12CC(=O)C(C(c3ccccc3)C1)C(c1ccccc1)C2 (centres undefined)", "9.99 µM"),
    ("O=C1CC2(N3CCCC3)CC(c3ccccc3)C1C(c1ccccc1)C2 (centres undefined)", "8.03 µM"),
    ("O=C1CC2(N3CCCCC3)CC(c3ccccc3)C1C(c1ccccc1)C2 (centres undefined)", "8.12 µM"),
    ("COc1ccc(C2CC3(N4CCCC4)CC(O)C2C(c2ccc(OC)cc2)C3)cc1 (centres undefined)", "7.61 µM"),
]

---

assay: Selectivity index, IC50 for L6 cells/ IC50 for Trypanosoma brucei rhodesience; format: functional
reported-endpoint: Ratio IC50

# compound, reported-endpoint, observed-value
measured = [
    ("COc1ccc(C2CC3(N(C)C)CC(O)C2C(c2ccc(OC)cc2)C3)cc1 (centres undefined)", "Ratio IC50", 29.5),
    ("CN(C)C12C/C(=N\\O)C(C(c3ccc(Cl)cc3)C1)C(c1ccc(Cl)cc1)C2 (centres undefined)", "Ratio IC50", 5.21),
    ("O/N=C1\\CC2(N3CCCCC3)CC(c3ccccc3)C1C(c1ccccc1)C2 (centres undefined)", "Ratio IC50", 6.6),
    ("COc1ccc(C2CC3(N4CCCC4)CC(=O)C2C(c2ccc(OC)cc2)C3)cc1 (centres undefined)", "Ratio IC50", 11.34),
    ("O/N=C1\\CC2(N3CCCC3)CC(c3ccc(Cl)cc3)C1C(c1ccc(Cl)cc1)C2 (centres undefined)", "Ratio IC50", 7.49),
    ("c1ccc(C2CC3(N4CCCCC4)CCNC2C(c2ccccc2)C3)cc1 (centres undefined)", "Ratio IC50", 13.66),
    ("Nc1nc(N)nc(Nc2ccc([As]3SCC(CO)S3)cc2)n1 (centres undefined)", "Ratio IC50", 1995),
    ("Cc1ccc(C(=O)Nc2ccc(S(=O)(=O)O)c3cc(S(=O)(=O)O)cc(S(=O)(=O)O)c23)cc1NC(=O)c1cccc(NC(=O)Nc2cccc(C(=O)Nc3cc(C(=O)Nc4ccc(S(=O)(=O)O)c5cc(S(=O)(=O)O)cc(S(=O)(=O)O)c45)ccc3C)c2)c1", "Ratio IC50", 629933),
    ("Clc1ccc(C2CC3(N4CCCC4)CCNC2C(c2ccc(Cl)cc2)C3)cc1 (centres undefined)", "Ratio IC50", 152.4),
]
